Here the recorded T/C is given for each entry.
system: BDF1 mice, P388 leukemia ip, median survival T/C; assay: NCI In Vivo Anticancer Drug Screen. Data for tumor model P388 Leukemia (intraperitoneal) in B6D2F1 (BDF1) mice; details: endpoint: median survival time; dose: 400.0 mg/kg/injection; schedule: Q01DX001 (ip); vehicle: Klucel (hydroxypropylcellulose) (HPC); higher = longer survival
Toxic doses and inconclusive results are not listed.

# count of solved cases: 5
{"compound": "CC(=O)N=C1CCCC1C#N (stereo not given)", "valueType": "T/C", "measured": "95 % of control"}
{"compound": "CCCCCn1c(Cl)c(/C=N\\Nc2ccccc2[N+](=O)[O-])c2ccccc21", "valueType": "T/C", "measured": "118 % of control"}
{"compound": "COc1ccc(Cl)cc1NC(=O)Nc1c(C)n(C)n(-c2ccccc2)c1=O", "valueType": "T/C", "measured": "95 % of control"}
{"compound": "Cc1c(N)nc(=S)[nH]c1C(=O)O", "valueType": "T/C", "measured": "104 % of control"}
{"compound": "CC(=O)c1ccccc1Br", "valueType": "T/C", "measured": "100 % of control"}

## Task Query for BDF1 mice, P388 leukemia ip, median survival T/C: what T/C does the record show for CC(=NCc1ccccc1)C(C)(O)c1ccccc1 (stereo not given) ?
## Result 100 % of control

## Task Next record, please: CC(C)Oc1ccc(Nc2ccccc2)cc1
## Result 91 % of control

## Task What would you report for CC(=O)OC1CCC2(C)C(=CCC3C2CCC2(C)C(OC(=O)c4ccccc4)CCC32)C1 (stereo not given) ?
## Result 100 % of control

## Task Try this compound too: O=C(O)c1ccc(C(=O)c2ccccc2C(=O)O)cc1
## Result 95 % of control

## Task Next record, please: NC(=O)N/N=C1\CCCC(CCC(=O)O)C1 (stereo not given)
## Result 100 % of control
